// provenance: patent US11447466B2

Can you tell me IC50 for the items I'm about to list?
# assayed target: human TLR9 (Homo sapiens, UniProt Q9NR96)
# Sequence (Q9NR96 26-1032): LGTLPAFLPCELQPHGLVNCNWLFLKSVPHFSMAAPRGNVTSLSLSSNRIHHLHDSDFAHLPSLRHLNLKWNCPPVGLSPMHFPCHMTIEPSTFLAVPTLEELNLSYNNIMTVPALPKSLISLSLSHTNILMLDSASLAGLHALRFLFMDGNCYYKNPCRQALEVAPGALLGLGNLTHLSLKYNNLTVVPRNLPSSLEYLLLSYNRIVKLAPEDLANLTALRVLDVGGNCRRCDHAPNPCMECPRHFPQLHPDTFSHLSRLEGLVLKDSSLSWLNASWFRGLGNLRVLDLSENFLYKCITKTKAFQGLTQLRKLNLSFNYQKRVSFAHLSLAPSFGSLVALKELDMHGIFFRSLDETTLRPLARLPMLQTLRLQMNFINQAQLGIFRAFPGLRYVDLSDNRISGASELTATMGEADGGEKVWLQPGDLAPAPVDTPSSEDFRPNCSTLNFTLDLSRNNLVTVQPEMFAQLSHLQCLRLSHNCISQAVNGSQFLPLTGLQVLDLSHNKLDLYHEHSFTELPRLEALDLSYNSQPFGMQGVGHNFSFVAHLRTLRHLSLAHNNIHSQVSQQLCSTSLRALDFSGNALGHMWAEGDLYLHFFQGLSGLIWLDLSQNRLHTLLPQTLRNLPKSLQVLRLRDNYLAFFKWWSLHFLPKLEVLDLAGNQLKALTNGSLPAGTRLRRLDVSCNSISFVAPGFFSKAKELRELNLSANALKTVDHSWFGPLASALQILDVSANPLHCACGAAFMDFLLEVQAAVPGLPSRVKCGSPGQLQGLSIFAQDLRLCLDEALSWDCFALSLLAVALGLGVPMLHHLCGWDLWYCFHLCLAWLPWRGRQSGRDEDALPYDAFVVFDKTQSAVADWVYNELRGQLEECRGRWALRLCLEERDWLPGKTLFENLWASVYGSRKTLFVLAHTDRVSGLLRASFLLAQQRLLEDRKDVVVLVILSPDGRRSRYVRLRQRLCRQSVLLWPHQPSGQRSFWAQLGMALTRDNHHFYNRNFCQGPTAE
# measurement protocol: TLR9 inhibition reporter assay (HEK-Blue SEAP reporter, ODN2006 stimulation)
# experimental context: HEK-Blue cells overexpressing human TLR9, SEAP reporter, ODN2006 5 nM, 22 hour incubation
Numbers only, in µM.

> print(dat)
                                   compound  result.units  readout.number
1  COCCn1cc(-c2[nH]c3ccc(C4CCNCC4)cc3c2C(C)C)cc(C)c1=O [Example 39]            µM            3.18
2  Cc1cc(-c2[nH]c3ccc(C4CCNCC4)cc3c2C(C)C)cn(CC(C)(C)O)c1=O [Example 43]            µM            1.56
3  COCc1cc(-c2[nH]c3ccc(C4CCN(C5CCOCC5)CC4)cc3c2C(C)C)cn(C)c1=O [Example 345]            µM            7.05

I'm hoping you can list IC50 for every compound here, please.
1. CC(C)c1c(-c2cc(Cl)c(=O)n(C)c2)[nH]c2ccc(C3CCN(C4CCOCC4)CC3)cc12 [Example 226]
2. Cc1cc(-c2[nH]c3ccc(C4CCN(C)CC4)cc3c2C(C)C)cn(C)c1=O [Example 181]
3. Cc1nc(-c2[nH]c3ccc(C4CCNCC4)cc3c2C(C)C)cn(C)c1=O [Example 12]

result:
[10.4, 13.5, 5.23]

The following compounds each have a reported value; give each one's IC50.
1. Cc1c(-c2[nH]c3ccc(C4CCN(CC(=O)N(C)C)CC4)cc3c2C(C)C)cn(C)c(=O)c1C [Example 134]
2. Cc1cc(-c2[nH]c3ccc(C4CCN(CCCC(F)(F)F)CC4)cc3c2C(C)C)cn(CC(C)C)c1=O [Example 110]

result:
[3.46, 5.26]
